Assay: Plasma precipitation screening assay
Parameters: species or system rat
Conditions: Wistar (Hanbrl:Wist SPF), rat, 10 min
Collected Plasma precipitation MEC values appear next to each entry.
Report as a plain number; the unit µmol/L is understood.

Examples from the recorded data:
compound: Cc1[nH]c2ccccc2c1C[C@H]1C(=O)NCc2c(-c3ccn(CC(=O)O)c(=O)c3)ccc(Cl)c2Sc2ncccc2CN[C@@H](CCCN)C(=O)N[C@@H](CCCCN)C(=O)N1C
endpoint: Plasma precipitation MEC
value observed: 1650
--
compound: CN1C(=O)[C@H](CCCCN)NC(=O)[C@H](CCCN)NCc2nccnc2Sc2c(Cl)ccc(-c3ccc(C(=O)O)c(F)c3)c2CNC(=O)[C@@H]1Cc1c[nH]c2ccccc12
endpoint: Plasma precipitation MEC
value observed: 380
--
compound: CN1C(=O)[C@H](CCCCN)NC(=O)[C@H](CCCN)NCc2cccnc2Sc2c(Cl)ccc(-c3ccc(OCC(=O)O)cc3)c2CNC(=O)[C@@H]1Cc1c[nH]c2ccccc12 [Example 241 of WO2017/072062, reference compound]
endpoint: Plasma precipitation MEC
value observed: 95

Next item in the queue.
What measured Plasma precipitation MEC goes with `CN1C(=O)[C@H](CCCCN)NC(=O)[C@H](CCCN)NCc2cccnc2Sc2c(F)ccc(-c3ccc(C(=O)O)cc3)c2CNC(=O)[C@@H]1Cc1c[nH]c2ccccc12` ? 870
